Each entry below carries its recorded MIC.
System: Aspergillus niger
Test: Antimicrobial activity against Aspergillus niger ATCC 6275 after 24 hrs by broth microdilution method
Type: functional
Details: ATCC 6275, 24 h
assay.readout: MIC (µg/mL)

1. CC(C)c1csc(C(=O)NN)n1; 125
2. CC(=O)N1N=C(c2nc(C(C)C)cs2)OC1c1ccccc1 (stereo not drawn); 16
3. CC(=O)N1N=C(c2nc(C(C)C)cs2)OC1c1ccc(N(C)C)cc1 (stereo not drawn); 31.2
4. C/C(=N/NC(=O)c1nc(C(C)C)cs1)c1ccccc1; 250
5. CC(=O)N1N=C(c2nc(C(C)C)cs2)OC1c1ccc(O)cc1 (stereo not drawn); 16
6. C/C(=N/NC(=O)c1nc(C(C)C)cs1)c1ccc(O)cc1; 125
7. C/C(=N/NC(=O)c1nc(C(C)C)cs1)c1ccc(C)cc1; 500
8. CC(C)=NNC(=O)c1nc(C(C)C)cs1; 500
9. C/C(=N/NC(=O)c1nc(C(C)C)cs1)c1ccc(Cl)cc1; 125
10. CC(C)c1csc(C(=O)N/N=C/c2ccc(O)cc2)n1; 31.2
11. C/C(=N/NC(=O)c1nc(C(C)C)cs1)c1ccc(Br)cc1; 125
12. CC(=O)N1N=C(c2nc(C(C)C)cs2)OC1c1cccc(Cl)c1Cl (stereo not drawn); 31.2
13. COc1cc(/C=N/NC(=O)c2nc(C(C)C)cs2)cc(OC)c1OC; 31.2
